Values compiled from patent US10670605B2.

- Test system: ACAT1 C413 (P24752) (Homo sapiens)
- Sequence (P24752 34-427): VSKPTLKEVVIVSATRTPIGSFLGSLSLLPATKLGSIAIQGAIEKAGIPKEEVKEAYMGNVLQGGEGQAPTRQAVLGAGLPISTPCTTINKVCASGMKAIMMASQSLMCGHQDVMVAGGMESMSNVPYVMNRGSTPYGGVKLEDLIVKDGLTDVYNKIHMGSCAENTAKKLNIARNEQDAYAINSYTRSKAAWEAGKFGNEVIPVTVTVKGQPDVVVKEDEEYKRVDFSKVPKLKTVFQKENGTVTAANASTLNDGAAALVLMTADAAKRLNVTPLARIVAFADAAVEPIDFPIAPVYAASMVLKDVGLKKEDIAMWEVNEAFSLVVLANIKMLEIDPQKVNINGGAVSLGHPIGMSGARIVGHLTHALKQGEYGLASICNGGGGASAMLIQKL
- Test details: Competitive isoTOP-ABPP, cell lysates
- Type: binding
- Condition summary: 500 μm, in-vitro_ramos_231
Readout type: isoTOP-ABPP reactivity profile ratio, P24752_C413

[[record]]
molecule = "O=C(CCl)N1CCc2cc(Br)ccc21"
test_value = 9.2

[[record]]
molecule = "CCCN(C(=O)CCl)c1c(N)n(CCC)c(=O)[nH]c1=O"
test_value = 1.0

[[record]]
molecule = "COc1cc(NC(=O)CCl)cc(OC)c1"
test_value = 15.9

[[record]]
molecule = "CC1CCc2ccccc2N1C(=O)CCl (centres unmarked)"
test_value = 20.0

[[record]]
molecule = "O=C(CCl)Nc1ccc(-c2ccccc2)cc1"
test_value = 1.9

[[record]]
molecule = "O=C(CCl)NC1C(O)OC(CO)C(O)C1O (mixture of isomers)"
test_value = 0.8

[[record]]
molecule = "C=CC(=O)N1CCC(Cc2ccccc2)CC1"
test_value = 1.0

[[record]]
molecule = "Cc1ncc(CO)c(CNC(=O)CCl)c1O"
test_value = 1.1

[[record]]
molecule = "C=CC(=O)N(c1ccccc1)C1CCCCC1"
test_value = 1.1

[[record]]
molecule = "O=C(CCl)Nc1cccc2ncccc12"
test_value = 1.0

[[record]]
molecule = "Cc1ccc(C(F)(F)F)cc1NC(=O)CCl"
test_value = 2.6

